Biological target: anti-SARS-CoV-2 VHH nanobody tagged with a hinge, 3xFLAG and C-terminal His tags
Assay: other fluorescence titration
observable: EC50 (µM)
All answers are understood in µM, so give the number only.

So what's the measured EC50 for this one? 5-TAMRA C6 maleimide double-labeled WW Fab 3D5 Q-body (Fab, V domains shown, VH of antibody 3D5, as the VH of m7 with the stated changes; numbers count on: Kabat numbering of the heavy chain; CH1 of the vector pUQ2, as in m7; VL of antibody 3D5, as the light chain of m7; CL of the vector pUQ2, as the light chain of m7; m8 labelled with two dyes; also called WW TAMRA; source: E. coli SHuffle T7 Express with pGro7, purified (Talon IMAC), labelled, purified (anti-FLAG M2 …)) VH: QVQLQQSGPEDVKPGASVKISCKASGYTFTDWWMNWVKQSPGKGLEWIGDINPNNGGTSYNQKFKGRATLTVDKSSSTAYMELRSLTSEDSSVYYCESQSGAYWGQGTTVTVSA VL: DILMTQTPSSLPVSLGDQASISCRSSQSIVHSNGNTYLEWYLQKPGQSPKLLIYKVSNRFSGVPDRFSGSGSGTDFTLKISRVEAEDLGVYYCFQGSHVPFTFGSGTKLEIK 11.5
